Test system: IGROV1 ovarian
ASSAY_COMMENT: NCI tumour cell line growth inhibition, 48 h
MEASUREMENT_TYPE: GI50

- MOLECULE: "Cc1c2ncccc2nc2[nH]c3ccc(OCCN(C)C)cc3c12"
  ENDPOINT_VALUE: "2.13 µM"
- MOLECULE: "CN(C)CCOC1(Cc2ccc(Cl)cc2Cl)CCC(C(C)(C)C)CC1 (centres undefined)"
  ENDPOINT_VALUE: "2.38 µM"
- MOLECULE: "CC1CCC2C(C)C3C(CC4C5CC=C6CC(OC7OC(CO)C(O)C(OC8OC(CO)C(O)C(O)C8O)C7OC7OC(C)C(O)C(O)C7O)CCC6(C)C5CCC43C)N2C1 (centres undefined)"
  ENDPOINT_VALUE: "> 2.5 µg/mL"
- MOLECULE: "O=C(NCCCNC(=O)OCc1ccc2c(Br)cc(Br)c(O)c2n1)OCc1ccc2c(Br)cc(Br)c(O)c2n1"
  ENDPOINT_VALUE: "> 100 µM"
